run.description: Lethal dose after administration in mouse
Assay type: toxicity, organism-based
condition.notes: in vivo, read-out: ALD50
reported.endpoint: LD50

Request: Quick one: LD50 of Cl.O=C1CC2(CCCC2)CC(=O)N1CCCCN1CCN(c2nsc3ccccc23)CC1 [TIOSPIRONE HYDROCHLORIDE] ?
Response: 1850 mg/kg

---

run.description: Lethal dose after peroral administration in mouse
Assay type: toxicity, organism-based
condition.notes: in vivo, po
reported.endpoint: LD50 (mg/kg)
Number only, in mg/kg; omit the unit.

Request: For the molecule CN(C)CCCN1c2ccccc2Sc2ccc(Cl)cc21 [CHLORPROMAZINE] , what LD50 is on record?
Response: 250

Request: Also need CN1CCN(C2=Nc3cc(Cl)ccc3Nc3ccccc32)CC1 [CLOZAPINE] , thanks.
Response: 219

Request: Likewise for CSc1ccc2c(c1)N(CCC1CCCCN1C)c1ccccc1S2 (centres undefined) [THIORIDAZINE] ?
Response: 250

---
Request: # input molecule: O=C(CCCN1CCC(O)(c2ccc(Cl)cc2)CC1)c1ccc(F)cc1 [HALOPERIDOL] ; wanted: its LD50
Response: 500

---

Organism: Rattus norvegicus
run.description: Inhibition of conditioned avoidance response (CAR)
Format: functional
Quick rule for you: ED50 under 8 mg/kg gets fulfilled, anything else gets not fulfilled.

Known results for compounds:
Request: Given OC(CCCN1CCN(c2nsc3ccccc23)CC1)c1ccc(F)cc1 (stereo not given) , is recorded ED50 strictly lower than 8 mg/kg?
Response: fulfilled

Request: Also check O=C1SC2(CCCC2)C(=O)N1CCCCN1CCCN(c2noc3ccccc23)CC1
Response: not fulfilled

Request: // query: O=C(CCCN1CCN(c2nsc3ccccc23)CC1)c1ccc(F)cc1
Response: fulfilled

We now examine a further compound.
Request: Problem: For the compound O=C1CC2(CCCC2)CC(=O)N1CCCCN1CCN(c2noc3cc(Cl)ccc23)CC1 , is ED50 under 8 mg/kg?
Response: not fulfilled

---

assay.system: Adrenergic receptor alpha-1 (Rattus norvegicus, UniProt P15823+P23944+P43140)
Sequence (P15823 whole entry): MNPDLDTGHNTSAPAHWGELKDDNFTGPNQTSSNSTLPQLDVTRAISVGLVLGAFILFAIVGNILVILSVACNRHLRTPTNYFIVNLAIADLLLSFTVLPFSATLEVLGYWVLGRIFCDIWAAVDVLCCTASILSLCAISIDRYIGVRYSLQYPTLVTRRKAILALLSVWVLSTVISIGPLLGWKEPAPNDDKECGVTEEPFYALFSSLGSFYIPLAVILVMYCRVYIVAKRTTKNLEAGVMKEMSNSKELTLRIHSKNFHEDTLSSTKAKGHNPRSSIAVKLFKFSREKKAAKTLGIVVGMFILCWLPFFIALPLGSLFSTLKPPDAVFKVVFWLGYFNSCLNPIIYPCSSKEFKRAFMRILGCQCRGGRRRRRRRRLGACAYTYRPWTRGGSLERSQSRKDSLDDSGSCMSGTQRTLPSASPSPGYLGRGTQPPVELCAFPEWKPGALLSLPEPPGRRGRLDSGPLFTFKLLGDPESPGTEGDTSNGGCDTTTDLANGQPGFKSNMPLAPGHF
Sequence (P23944 whole entry): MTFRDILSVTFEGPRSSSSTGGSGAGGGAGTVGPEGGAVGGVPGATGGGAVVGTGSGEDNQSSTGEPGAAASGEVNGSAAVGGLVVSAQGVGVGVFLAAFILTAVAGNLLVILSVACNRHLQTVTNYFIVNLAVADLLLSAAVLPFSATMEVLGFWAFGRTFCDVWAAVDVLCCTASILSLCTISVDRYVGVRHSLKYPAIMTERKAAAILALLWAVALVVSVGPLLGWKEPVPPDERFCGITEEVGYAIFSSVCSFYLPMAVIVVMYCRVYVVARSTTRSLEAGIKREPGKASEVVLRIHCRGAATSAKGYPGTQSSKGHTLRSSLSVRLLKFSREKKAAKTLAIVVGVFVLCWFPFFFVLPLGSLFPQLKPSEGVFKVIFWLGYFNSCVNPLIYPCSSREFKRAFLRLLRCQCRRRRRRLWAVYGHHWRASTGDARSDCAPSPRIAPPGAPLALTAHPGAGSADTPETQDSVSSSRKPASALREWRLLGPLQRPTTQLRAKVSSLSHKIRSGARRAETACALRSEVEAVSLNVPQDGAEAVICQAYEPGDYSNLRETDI
Sequence (P43140 whole entry): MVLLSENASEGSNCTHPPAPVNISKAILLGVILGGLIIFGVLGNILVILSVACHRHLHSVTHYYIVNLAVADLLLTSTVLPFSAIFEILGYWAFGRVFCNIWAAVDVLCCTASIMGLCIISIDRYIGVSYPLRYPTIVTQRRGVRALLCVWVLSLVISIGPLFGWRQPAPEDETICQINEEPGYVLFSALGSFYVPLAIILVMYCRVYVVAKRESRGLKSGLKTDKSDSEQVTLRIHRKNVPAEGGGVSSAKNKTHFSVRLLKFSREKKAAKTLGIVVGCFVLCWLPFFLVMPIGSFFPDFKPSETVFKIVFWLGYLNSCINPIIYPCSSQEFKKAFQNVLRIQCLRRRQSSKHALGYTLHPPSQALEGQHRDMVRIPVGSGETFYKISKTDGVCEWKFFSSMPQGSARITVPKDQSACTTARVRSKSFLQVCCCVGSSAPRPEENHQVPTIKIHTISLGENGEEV
Catalogue of compounds with associated IC50
Don't forget the unit after the value.

For orientation, consider the following solved cases.
Request: Param item = O=C1CC2(CCCC2)CC(=O)N1CCCCN1CCN(c2noc3cc(Cl)ccc23)CC1 ; retrieve measured IC50.
Response: 5 nM

Request: Continue with O=C(CCCN1CCN(c2nsc3ccccc23)CC1)c1ccc(F)cc1
Response: 8 nM

Further cases:
Request: Which measured IC50 value corresponds to CN1CCN(CCCN2c3ccccc3Sc3ccc(C(F)(F)F)cc32)CC1 [TRIFLUOPERAZINE] ?
Response: 350 nM
